Where do these numbers come from? They come from patent US20230131427A1.

Tested on: Glomerella lagenarium syn. Colletotrichum lagenarium
Assay: Example B1: mixtures, preventative activity against Glomerella lagenarium syn. Colletotrichum lagenarium, liquid culture
Format: cell-based
Conditions: Colletotrichum orbiculare; component B alone, 0.3 ppm; read-out: Activity (%) B
Measured inhibition at 0.3 ppm of individual entries
reported.property: inhibition at 0.3 ppm (%)

COc1ccnc(C(=O)N[C@@H](C)C(=O)O[C@@H](C)[C@H](c2ccc(F)cc2C)C(C)C)c1OCOC(C)=O :: 70
S1SSSSSSS1 :: 0
CON=C(C(=O)OC)c1ccccc1CON=C(C)c1cccc(C(F)(F)F)c1 [trifloxystrobin, reference compound] :: 90
N#Cc1c(Cl)c(Cl)c(Cl)c(C#N)c1Cl [chlorothalonil, reference compound] :: 20
OC(Cc1ccccc1Cl)(Cn1nc[nH]c1=S)C1(Cl)CC1 (stereo not drawn) [proth ioconazole, prothioconazole, reference compound] :: 50
CCOC(=O)C1CC(=O)C(=C(O)C2CC2)C(=O)C1 (stereo not drawn) [trinexapac-ethyl, reference compound] :: 0
